- MEASURED ON: full-length stabilised spike trimer protein of SARS-CoV-2 virus (in-house, soluble ECD with trimeris (SARS-CoV-2, UniProt P0DTC2 14-1208; P10104 458-484)
// NO strictly below 600 deltaF in HTRF deltaF; YES otherwise

# example entries with known answers
1. IMPI-013 (antibody, V domains shown) VH: EVQLVESGGGLVQPGRSLRLSCAASGFTFDDYAMHWVRQTPGKGLEWVSGISWNSGSIGYADSVKGRFTISRDNAKNSLYLQMNSLRAEDTALYYCTKDLGLGIGFYYGLDVWGQGTTVTVSS VL: AIQMTQSPSSLSTSVGDRVTITCRASQGIRNDLGWYQLKPGKAPKLLIYDASTLQSGVPSRFSGSGSGTDFTLTISSLEPEDLATYYCLHHYTYPWTFGHGTKVELK    YES
2. IMPI-002 (antibody, V domains shown) VH: EVQLVESGGGLIQPGGSLRLSCAASGVTVSSNYMSWVRQAPGKGLEGVSVIYSGGSTYYADSVKGRFTISRDNSKNTLYLQMNSLRAEDTAVYYCARDTVVYGMDVWGQGTTVTVSS VL: DIQLTQSPSFLSASVGDRVTITCWASQGISSYLAWYQQKPGKAPKLLIYAASTLQSGVPSRFSGSGSGTEFTLTISSLQPEDFATYYCQQLNSYPLTFGGGTKVEIK    YES
3. IMPI-017 (antibody, V domains shown) VH: EVQLVESGGGLIQPGGSLRLSCAAAGLTVSSNYMNWVRQVPGKGLEWVSVIYSGGSTYYADSVKGRFTISRDNSKNTLYLQMNSLRAEDTAVYYCARDLGTLGMDVWGQGTTVTVSS VL: DIQLTQSPSFLSASVGDRVTITCWASQGISTYLAWYQQKPGKAPKLLIYAASTLQSGVPSRFSGSGSGTEFTLTISSLQPEDFATYYCQQLNSYLPTFGQGTKVEIK    NO
4. IMPI-005 (antibody, V domains shown) VH: EVQLVESGGGLIQPGGSLRLSCAASGFTVSSNYMNWVRQAPGKGLEWVSVIYSGGSTYYADSVKGRFTISRDNSKNTLFLQMNSLRAEDSAVYYCARDLGPYGVDVWGQGTTVTVSS VL: DIQLTQSPSFLSASVGDRVTITCWASQGISSYLAWYQQKPGKAPKLLIYAASTLQSGVPSRFSGSGSGTEFTLTISSLQPEDFATYYCQELNSYPLTFGQGTRLEIK    YES

Does IMPI-060 (antibody, V domains shown) VH: EVQLVESGGGLIQPGGSLRLSCAASGVTVSSNYMSWVRQAPGKGLEWVSVIYSGGSTFYADSVKGRFTISRDNSKNTLYLQMNSLRAEDTAVYYCARDLSYYGMDVWGQGTTVTVSS VL: DIQLTQSPSFLSASVGDRVTITCWASQGISSYLAWYQQKPGKAPKLLIYAASTLQSGVPSKFSGSGSGTEFTLTISSLQPEDFATYYCQQLNSYPSSFGQGTKLEIK have a reported HTRF deltaF of at least 600 deltaF? NO
